Items are presented alongside their recorded melting point.
PROPERTY_LABEL: melting point

>>> result("O=C(NCCC1CCN(c2ccc(C(F)(F)F)cc2)CC1)c1ccc(=O)[nH]c1")
"232 to 233 °C (dec.)"
>>> result("O=C(NCCC1(O)CCN(c2ccc(C(F)(F)F)cn2)CC1)c1cn[nH]c1")
"199 to 200 °C"
>>> result("CC(=O)c1ccc(N2CCN(C(=O)C(=O)Nc3ccc4[nH]c(=O)oc4c3)CC2)cc1")
"264 to 266 °C (dec.)"
>>> result("COc1cc(N2CCN(C(=O)C(=O)Nc3ccc4[nH]c(=O)oc4c3)C[C@H]2C)ccc1Cl")
"122 to 124 °C"

Just for reference, patent US7935706B2 is where these values come from.
